assay summary: chemical genetic growth profiling, strain panel (AID 1159580);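 note: tested at 20 µM; growth read once vehicle control cultures reached saturation at 30 °C; 1 = growth at the plate median or of vehicle wells; lower values mean less growth of the strain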
run parameters: S. cerevisiae deletion strains, growth OD, locus YMR058W, strain fet3
The campaign covered roughly 5,500 compounds. About 2,000 (36%) were called active. Not shown: some 18% with an inconclusive outcome. Cut-off read from the data, not from the text of the source: active = normalized growth mostly below about 0.91 (no sharp cut-off); inconclusive = no clear call, values can overlap the other calls; inactive = mostly above about 0.92. The list shows a part of the results.
Result category, one only: Yes = active, No = inactive

Please share the test call associated with Nc1nc2ncc(CNc3ccc(C(=O)N[C@@H](CCC(=O)O)C(=O)O)cc3)nc2c(=O)[nH]1 .
No

Outcome logged for CN(Cc1cnc2nc(N)nc(N)c2n1)c1ccc(C(=O)NC(CCC(=O)O)C(=O)O)cc1 (centres undefined) in this assay:
Yes

Any idea what this test logged for O=C(O)c1cc(=O)c2c(OCC(O)COc3cccc4oc(C(=O)O)cc(=O)c34)cccc2o1 ?
No

Which outcome did this test record for the compound O=C1OCCN1/N=C\c1ccc([N+](=O)[O-])o1 ?
Yes

Please state the recorded outcome for this compound: Nc1nc2c(c(=O)[nH]1)N(C=O)C(CNc1ccc(C(=O)N[C@@H](CCC(=O)O)C(=O)O)cc1)CN2 (some centres undefined)
No

Given O=C(NC(Cc1cc(=O)[nH]c2ccccc12)C(=O)O)c1ccc(Cl)cc1 (centres undefined) , state the outcome it received in this test.
No

Recorded call for CCOc1ccc2c(c1)C(C)=CC(C)(C)N2 ?
No

Per the records of this test, what outcome belongs to O=C1N=C(O)CN1/N=C\c1ccc(-c2ccc([N+](=O)[O-])cc2)o1 ?
No

Fill in: this test's call for COc1cc(C)c2c(c1C=O)Oc1c(c(C)c(O)c3c1C(O)OC3=O)OC2=O (centres undefined) is ___
No

----------
assay summary: chemical genetic growth profiling, strain panel (AID 1159580);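 note: tested at 20 µM; growth read once vehicle control cultures reached saturation at 30 °C; 1 = growth at the plate median or of vehicle wells; lower values mean less growth of the strain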
run parameters: S. cerevisiae deletion strains, growth OD, locus YCL029C, strain bik1, active compounds read low
Screen size: about 5,500 compounds; about 2,000 (36%) were called active. Another 18% or so got no clear call; they are omitted. This is one part of the list.
observation type: normalized growth
# output: bare number, no unit

If you can, please state the reported normalized growth value of Nc1nc2c(c(=O)[nH]1)N(C=O)C(CNc1ccc(C(=O)N[C@@H](CCC(=O)O)C(=O)O)cc1)CN2 (some centres undefined) .
0.985

Which normalized growth reading was recorded for the molecule CC(=O)C1=C(O)C2C3c4c[nH]c5cccc(c45)CC3C(C)(C)N2C1=O (centres undefined) ?
1

normalized growth lookup needed for CC(C)C1=CC2=CCC3[C@](C)(CCC[C@]3(C)C(=O)O)C2CC1 (some centres undefined) , thanks.
0.995

So what does the record say about normalized growth for CC[C@@]1(C2O[C@@H](C3O[C@@](O)(CC)[C@H](C)C[C@@H]3C)C[C@@H]2C)CC[C@H]([C@]2(C)CCC3(C[C@H](O)[C@@H](C)[C@@H]([C@H](C)[C@@H](OC)[C@H](C)C(=O)O)O3)O2)O1 (some centres undefined) ?
0.982

normalized growth lookup needed for CCC(CCC(C)C1CCC2C3CC=C4C[C@@H](OC(C)=O)CC[C@]4(C)C3CC[C@]12C)C(C)C (some centres undefined) , thanks.
0.996

Item COS(C)(=O)=O has what recorded normalized growth?
1.02

Would you kindly share the measured normalized growth for CC[C@]12CCCN3CCc4c(n(c5ccccc45)C(=O)C1)[C@@H]32 ?
0.989

Would you kindly share the measured normalized growth for COc1ccc(-c2cc(C(F)F)nn2-c2ccc(S(N)(=O)=O)cc2)cc1F ?
1.01

# query: normalized growth of entry CC(=O)O[C@H]1CC[C@@]2(C)C(=CCC3C2CC[C@@]2(C)C3CC[C@@H]2C(C)CCCC(C)C)C1 (some centres undefined)
1.02

Need normalized growth of Nc1nccs1 , thanks.
0.98

Reported normalized growth, molecule Nc1ccc(S(=O)(=O)Nc2nccs2)cc1 : ____
0.998

Need normalized growth of CN(Cc1cnc2nc(N)nc(N)c2n1)c1ccc(C(=O)NC(CCC(=O)O)C(=O)O)cc1 (centres undefined) , thanks.
0.988

normalized growth for CC(=O)OCC(=O)[C@@]12OC(C)(C)O[C@@H]1CC1C3C[C@H](F)C4=CC(=O)C=C[C@]4(C)[C@@]3(F)[C@@H](O)C[C@@]12C (some centres undefined) ?
1.01

What value of normalized growth has been reported for the following molecule? CCOC(=O)C1=C[C@]2(CC)CCCN3CCc4c(n1c1ccccc41)[C@@H]32
0.974

----------
assay summary: chemical genetic growth profiling, strain panel (AID 1159580);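 note: tested at 20 µM; growth read once vehicle control cultures reached saturation at 30 °C; 1 = growth at the plate median or of vehicle wells; lower values mean less growth of the strain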
run parameters: S. cerevisiae deletion strains, growth OD, locus YJL115W, strain asf1, active compounds read low
Hit rate of the full screen: of about 5,500 compounds, about 2,000 (36%) were called active. About 18% were inconclusive and are not listed. The list shows a part of the results.
Would you kindly list normalized growth for each of these compounds?
Response field accepts a number only; no unit should be typed.

// lookup normalized growth for O=C(NC(Cc1cc(=O)[nH]c2ccccc12)C(=O)O)c1ccc(Cl)cc1 (centres undefined)
1

For the compound shown here, OC1CCCCC1N1CCC(c2ccccc2)CC1 (centres undefined) , give the reported normalized growth.
0.991

Need normalized growth, item COc1cc(C)c2c(c1C=O)Oc1c(c(C)c(O)c3c1C(O)OC3=O)OC2=O (centres undefined)
1

Please look up its normalized growth: CCCN(CCC)CCc1cccc2c1CC(=O)N2
0.958

Which normalized growth is reported for this compound? CC(=O)O[C@H]1CC[C@@]2(C)C(=CCC3C2CC[C@@]2(C)C3CC[C@@H]2C(C)CCCC(C)C)C1 (some centres undefined)
1

I would be grateful if you could share the reported normalized growth for CCOc1ccc2c(c1)C(C)=CC(C)(C)N2 .
0.984

Any idea what its normalized growth is? The compound is O=C1OCCN1/N=C\c1ccc([N+](=O)[O-])o1
0.982

Using the record for O=C1N=C(O)CN1/N=C\c1ccc(-c2ccc([N+](=O)[O-])cc2)o1 , report its normalized growth.
0.976

Fill in: normalized growth of CC1=C(/C=C/C(C)=C/C=C/C(C)=C\C(=O)O)C(C)(C)CCC1 is ___
0.962

Reported normalized growth, compound C[C@H](COc1ccccc1)N[C@H](C)[C@H](O)c1ccc(O)cc1 : ____
0.996

Find the recorded normalized growth belonging to O=C1O[C@@H](CO)[C@H](O)[C@@H](O)[C@@H]1O and report it.
1.02

Using the record for CC(Cc1ccc(O)c(O)c1)(NN)C(=O)O (centres undefined) , report its normalized growth.
0.983

Record request: normalized growth value, item CC1=C(/C=C/C(C)=C/C=C/C(C)=C/CO)C(C)(C)CCC1
1.01

Record request: normalized growth value, item NCCCCN=C(N)N
1.03

Which normalized growth value is on record for C[C@](N)(Cc1ccc(O)cc1)C(=O)O ?
0.99

normalized growth lookup needed for CCOP(=S)(OCC)Oc1ccc2c(C)c(Cl)c(=O)oc2c1 , thanks.
0.962

Fill blank: measured normalized growth of the compound CCCc1cc(OC)c2c(c1)OCO2 is ____.
0.98

Request the reported normalized growth associated with CCn1cc(C(=O)O)c(=O)c2cnc(N3CCNCC3)nc21
1

normalized growth for CCn1cc(C(=O)O)c(=O)c2cc3c(cc21)OCO3 ?
0.974

----------
assay summary: chemical genetic growth profiling, strain panel (AID 1159580);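 note: tested at 20 µM; growth read once vehicle control cultures reached saturation at 30 °C; 1 = growth at the plate median or of vehicle wells; lower values mean less growth of the strain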
run parameters: S. cerevisiae deletion strains, growth OD, locus YLR113W, strain HOG1, active compounds read low
About 2,000 (36%) of roughly 5,500 compounds were called active. About 18% were inconclusive and are not listed. The list shows a part of the results.
Category scheme (normalized growth): low group = under 0.9, middle group = from 0.9 up to 1, high group = 1 and over

Could you place O=C1O[C@@H](CO)[C@H](O)[C@@H](O)[C@@H]1O in its proper category? Many thanks.
middle group

Class label required: O=C(CCSc1cccs1)Nc1cccc(C(F)(F)F)c1
low group

Sort CC(=O)Oc1cc(C)c2c(c1C=O)Oc1c(c(C)c(OC(C)=O)c3c1C(OC(C)=O)OC3=O)OC2=O (centres undefined) into one of the categories.
low group

Which bin should I file CC[C@@]1(C2O[C@@H](C3O[C@@](O)(CC)[C@H](C)C[C@@H]3C)C[C@@H]2C)CC[C@H]([C@]2(C)CCC3(C[C@H](O)[C@@H](C)[C@@H]([C@H](C)[C@@H](OC)[C@H](C)C(=O)O)O3)O2)O1 (some centres undefined) under?
middle group

Category lookup for the molecule NC(=NC(=O)c1ccc(Cl)cc1)c1cccs1
low group

Which category does the recorded normalized growth put CC(=O)C(Sc1nc2ccccc2s1)C(C)=O in?
low group

Class (by measured normalized growth) for CCCCCc1ccc(S(=O)(=O)Nc2ccc3c(c2)C(=O)OC3)cc1
low group

Looking at Clc1ccc(-c2noc(CSC3=NCCN3)n2)cc1 , which class would you pick?
low group

The entry to classify is CC1=C(/C=C/C(C)=C/C=C/C(C)=C\C(=O)O)C(C)(C)CCC1 ; which class holds it?
high group

In plain terms, what class is Cc1cc(C(=O)O/N=C(/N)c2ccc([N+](=O)[O-])o2)no1 ?
low group

Band for the recorded normalized growth of CO[C@@H]1[C@@H](O[C@@H]2O[C@H](C)[C@@H](O[C@H]3C[C@@](C)(O)[C@H](O)[C@H](C)O3)[C@H](N(C)C)[C@H]2O)[C@@H](CC=O)C[C@@H](C)[C@@H](O[C@H]2CC[C@H](N(C)C)[C@@H](C)O2)/C=C/C=C/C[C@H](C)OC(=O)C[C@H]1O ?
middle group

Field: class (normalized growth) — entry: CC[C@@H](C(=O)[C@@H](C)[C@@H](O)[C@H](C)[C@@H]1O[C@@H]([C@@H](CC)C(=O)O)CC[C@@H]1C)[C@H]1OC2(C=C[C@@H](O)[C@]3(CC[C@@](C)([C@H]4CC[C@](O)(CC)[C@H](C)O4)O3)O2)[C@H](C)C[C@@H]1C (some centres undefined)
low group

Which normalized growth category applies to O=C(Nc1ccc(Cl)cc1Cl)c1cnccc1C(F)(F)F here?
high group

The measurements presented in this section are drawn from PubChem BioAssay AID1159580.
